Known pKi of a selection of compounds
# test_system: Carbonic anhydrase 12 (Homo sapiens, UniProt O43570)
# Sequence (O43570 whole entry): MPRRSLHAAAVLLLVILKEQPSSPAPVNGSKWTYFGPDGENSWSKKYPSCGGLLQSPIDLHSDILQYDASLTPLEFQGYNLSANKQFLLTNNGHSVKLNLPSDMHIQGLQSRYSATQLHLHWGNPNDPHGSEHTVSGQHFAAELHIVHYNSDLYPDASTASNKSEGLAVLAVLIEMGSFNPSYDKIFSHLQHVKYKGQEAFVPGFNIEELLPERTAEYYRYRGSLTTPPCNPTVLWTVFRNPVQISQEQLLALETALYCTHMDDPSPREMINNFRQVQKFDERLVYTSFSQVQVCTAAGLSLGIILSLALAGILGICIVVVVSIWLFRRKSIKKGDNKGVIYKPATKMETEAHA
# assay: Inhibition of recombinant human CA12 pre-incubated for 15 mins prior to testing by phenol red-based stopped-flow CO2 hydration assay
pKi: −log10 of the molar value.
measurement_type: pKi

COc1ccc(C(=O)CNc2ccc(S(N)(=O)=O)cc2)cc1 ... 7.09
CCOC(=O)C(C(=O)Nc1cccc(S(N)(=O)=O)c1)C(C)C (stereo not drawn) ... 6.95
COc1ccccc1CC1=C(Nc2ccc(S(N)(=O)=O)cc2)C(=O)N(c2ccccc2)C1=O ... 7.06
CCOC(=O)C(Nc1ccc(S(N)(=O)=O)cc1)c1ccc(Cl)cc1 (stereo not drawn) ... 7.20
Cc1ccc(C(=O)CNc2ccc(S(N)(=O)=O)cc2)cc1 ... 7.17
Cc1ccc(N2C(=O)C(Cc3ccc(Cl)cc3)=C(Nc3ccc(S(N)(=O)=O)cc3)C2=O)cc1 ... 6.89
CCOC(=O)C(Nc1cccc(S(N)(=O)=O)c1)C(=O)c1ccccc1 (stereo not drawn) ... 7.08
CC(C)OC(=O)C(Nc1ccc(S(N)(=O)=O)cc1)C(=O)OC(C)C ... 7.21
